method: Henry solubility constant Hcp at 298.15 K (mol/(m3 Pa))
measurement setup: reference: O’Farrell and Waghorne (2010)
Label label 1 when Henry solubility constant Hcp is at or above 0.4; anything below gets label 0.

In [3]: df
Out[3]:
     smiles_data  category
0            CCO   label 1
1  CC(=O)C(Cl)Cl   label 0
2         COCCOC   label 1
3       C1COCOC1   label 1
4      OCC(Cl)Cl   label 0
5      CCC(=O)CC   label 0
6        CC(C)=O   label 0
7        OCC(F)F   label 1
8      O=C1CCCC1   label 1
9       CC(=O)CF   label 1
